Numbers sourced from patent US4241065A.

test: in vivo; design: species or system mice (CF1 S female); settings: sc, mouse, subcutaneous, within 25 minutes after dosing, compounds of the invention as hydrochloride salt, 135 mg/kg or higher = inactive, read-out: Straub Tail ED50 (Mouse ED50 Values)
Entries annotated with measured ED50 at 25 min

Use the examples below as a reference point.
CC(=O)Oc1ccc2c3c1O[C@H]1C(F)=CC[C@H]4[C@@H](C2)N(CC2CC2)CC[C@]314: > 18 mg/kg
CN1CC[C@]23c4c5ccc(O)c4OC2C(F)=CC[C@H]3[C@H]1C5.Cl (some centres unmarked): 17 mg/kg
Cl.Oc1ccc2c3c1OC1C(F)=CC[C@H]4[C@@H](C2)N(CC2CC2)CC[C@]314 (some centres unmarked): > 135 mg/kg

*Q* Supply recorded ED50 at 25 min for Oc1ccc2c3c1OC1C(F)(F)CC[C@H]4[C@@H](C2)N(CC2CC2)CC[C@]314 (some centres unmarked) here.
*A* > 54 mg/kg

*Q* Fill in reported ED50 at 25 min for this entry: COc1ccc2c3c1OC1C(F)(F)CC[C@H]4[C@@H](C2)N(CC2CCC2)CC[C@]314.Cl (some centres unmarked)
*A* > 81 mg/kg

*Q* Look up ED50 at 25 min of COc1ccc2c3c1O[C@H]1C(F)(F)CC[C@@]4(O)[C@@H](C2)N(CC2CCC2)CC[C@]314.Cl and report it.
*A* > 135 mg/kg

*Q* State its ED50 at 25 min: CC(=O)Oc1ccc2c3c1O[C@H]1C(F)(F)CC[C@H]4[C@@H](C2)N(CC2CC2)CC[C@@]341
*A* > 18 mg/kg

*Q* Give the reported ED50 at 25 min for this compound. COc1ccc2c3c1OC1C(F)C=CC4C(C2)N(C)CCC341 (centres unmarked) [Ayer 3,137,701, reference compound]
*A* 63 mg/kg

###

assay: in vivo; parameters: species or system mice (CF1 S female); conditions: sc, mouse, subcutaneous, within 25 minutes after dosing, compounds of the invention as hydrochloride salt, 135 mg/kg or higher = inactive, read-out: Straub Tail ED50 (Mouse ED50 Values)
measure: ED50 at 25 min

Examples with answers:
COc1ccc2c3c1OC1C(F)(F)CC[C@H]4[C@@H](C2)N(CC2CC2)CC[C@]314 (stereo partly shown): > 54 mg/kg
COc1ccc2c3c1O[C@H]1[C@@H](O)C=C[C@H]4[C@@H](C2)N(C)CC[C@@]341 [Codeine PO4, reference compound]: 202 mg/kg

*Q* Look up ED50 at 25 min of COc1ccc2c3c1OC1C(F)=CC[C@H]4[C@@H](C2)N(CC2CC2)CC[C@]314 (stereo partly shown) and report it.
*A* > 135 mg/kg

*Q* Please indicate ED50 at 25 min recorded for COc1ccc2c3c1O[C@H]1C(F)(F)CC[C@H]4[C@@H](C2)N(C)CC[C@@]341.Cl
*A* 10 mg/kg

###

assay: in vivo; set-up: species or system mice (CF1 S female); conditions: mouse, sc, 135 mg/kg
measure: ED50 at 25 min
In your response, the unit should come after the numeric value.

*Q* Provide one value: measured ED50 at 25 min of CN1CC[C@]23c4c5ccc(O)c4O[C@H]2[C@@H](O)C=C[C@H]3[C@H]1C5 [Morphine SO4, reference compound]
*A* 48 mg/kg

###

system: pain induced by phenylquinone (writhing syndrome); experiment: Phenylquinone writhing test (PQW), analgesic activity in mice; type: in vivo, mice (fasted female white mice); conditions: 0.5 h; mouse, oral, observed for 10 min commencing 30 min after administration; compounds of the invention as hydrochloride salt; 135 mg/kg or higher = inactive; read-out: PQW ED50 (Mouse ED50 Values, POW)
Mark rule met only when ED50 stays strictly below 7 mg/kg. Values equal to the cut-off are rule not met.

These solved cases illustrate the format of a correct answer.
CN1CC[C@]23c4c5ccc(O)c4OC2C(F)=CC[C@H]3[C@H]1C5.Cl (some centres unmarked): rule not met
CC(=O)Oc1ccc2c3c1O[C@H]1C(F)=CC[C@H]4[C@@H](C2)N(CC2CC2)CC[C@]314: rule met
CC(=O)Oc1ccc2c3c1O[C@H]1C(F)(F)CC[C@H]4[C@@H](C2)N(CC2CC2)CC[C@@]341: rule met

// next entry
*Q* Given COc1ccc2c3c1O[C@H]1C(F)=CC[C@H]4[C@@H](C2)N(C)CC[C@]314.Cl , is recorded ED50 strictly lower than 7 mg/kg?
*A* rule not met
